// Acetylcholinesterase (Homo sapiens, UniProt P22303) IC50 records
quantity_kind: IC50 (µM)

> print(dat)
                                   compound                                    target  endpoint.unit  reported.value
1  O=C1C[C@@H](c2ccc(O)c(O)c2)Oc2cc(O)cc(O)c21 [ERIODICTYOL]  Acetylcholinesterase (Homo sapiens, UniProt P22303)             µM            1660
2  COc1cc(C2CC(=O)c3c(cc(O)c(C/C=C(\C)CCC=C(C)C)c3O)O2)cc(OC)c1O (centres undefined)  Acetylcholinesterase (Homo sapiens, UniProt P22303)             µM             316
3  COc1c(O)cc(C2Oc3cc(O)c(C/C=C(\C)CCC=C(C)C)c(O)c3C(=O)[C@@H]2O)cc1O (some centres undefined)  Acetylcholinesterase (Homo sapiens, UniProt P22303)             µM            15.6
4  COc1ccc([C@@H]2CC(=O)c3c(cc(O)c(C/C=C(\C)CCC=C(C)C)c3O)O2)cc1O  Acetylcholinesterase (Homo sapiens, UniProt P22303)             µM            92.4

* * *

- target: Acetylcholinesterase (Homo sapiens, UniProt P22303)
- Sequence (P22303 whole entry): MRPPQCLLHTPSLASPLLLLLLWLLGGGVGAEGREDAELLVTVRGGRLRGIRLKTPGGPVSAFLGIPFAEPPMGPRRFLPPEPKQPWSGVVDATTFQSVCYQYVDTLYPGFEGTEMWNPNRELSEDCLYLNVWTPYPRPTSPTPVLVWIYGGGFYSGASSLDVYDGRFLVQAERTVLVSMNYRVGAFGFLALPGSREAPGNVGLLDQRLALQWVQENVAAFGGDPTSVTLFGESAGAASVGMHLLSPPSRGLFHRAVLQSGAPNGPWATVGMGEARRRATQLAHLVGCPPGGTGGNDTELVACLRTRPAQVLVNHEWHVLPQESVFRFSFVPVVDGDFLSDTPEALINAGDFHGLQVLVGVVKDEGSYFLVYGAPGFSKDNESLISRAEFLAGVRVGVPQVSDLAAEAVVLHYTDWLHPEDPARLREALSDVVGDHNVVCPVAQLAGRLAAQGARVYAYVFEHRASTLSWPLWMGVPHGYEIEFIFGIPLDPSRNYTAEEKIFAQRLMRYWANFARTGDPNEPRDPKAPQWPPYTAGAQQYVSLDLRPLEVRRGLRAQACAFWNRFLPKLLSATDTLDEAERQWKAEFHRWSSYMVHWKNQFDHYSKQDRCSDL
pKi: −log10 of the molar value.
Label no if pKi falls below 4; label yes in every other case.

> print(dat)
                                   compound                                    target  assigned.category
1  COc1cc([C@H]2Oc3cc(O)c(C/C=C(\C)CCC=C(C)C)c(O)c3C(=O)[C@@H]2O)ccc1O  Acetylcholinesterase (Homo sapiens, UniProt P22303)                yes
2  COc1cc([C@@H]2CC(=O)c3c(cc(O)c(C/C=C(\C)CCC=C(C)C)c3O)O2)ccc1O  Acetylcholinesterase (Homo sapiens, UniProt P22303)                 no
3  COc1c(O)cc(C2CC(=O)c3c(cc(O)c(C/C=C(\C)CCC=C(C)C)c3O)O2)cc1O (stereo not drawn)  Acetylcholinesterase (Homo sapiens, UniProt P22303)                yes
4  COc1ccc([C@H]2Oc3cc(O)c(C/C=C(\C)CCC=C(C)C)c(O)c3C(=O)[C@@H]2O)cc1O  Acetylcholinesterase (Homo sapiens, UniProt P22303)                yes
5  CC(C)=CCC/C(C)=C/Cc1c(O)cc2c(c1O)C(=O)C[C@@H](c1ccc(O)c(O)c1)O2 [NYMPHAEOL A]  Acetylcholinesterase (Homo sapiens, UniProt P22303)                yes
6  COc1c(O)cc(C2Oc3cc(O)c(C/C=C(\C)CCC=C(C)C)c(O)c3C(=O)[C@@H]2O)cc1O (stereo partly drawn)  Acetylcholinesterase (Homo sapiens, UniProt P22303)                yes

* * *

- target: Acetylcholinesterase (Homo sapiens)
- experimental_details: Inhibition of human erythrocyte AChE assessed as acetylthiocholine iodide hydrolysis after 10 mins preincubation by spectrophotometry
quantity_kind: inhibition

> print(dat)
                                   compound  quantity.kind         reported.value
1  COc1cc([C@@H]2CC(=O)c3c(cc(O)c(C/C=C(\C)CCC=C(C)C)c3O)O2)ccc1O     inhibition  Dose-dependent effect
2  COc1ccc([C@H]2Oc3cc(O)c(C/C=C(\C)CCC=C(C)C)c(O)c3C(=O)[C@@H]2O)cc1O     inhibition  Dose-dependent effect
3  COc1ccc([C@@H]2CC(=O)c3c(cc(O)c(C/C=C(\C)CCC=C(C)C)c3O)O2)cc1O     inhibition  Dose-dependent effect
4  COc1cc([C@H]2Oc3cc(O)c(C/C=C(\C)CCC=C(C)C)c(O)c3C(=O)[C@@H]2O)ccc1O     inhibition  Dose-dependent effect
5  COc1c(O)cc(C2Oc3cc(O)c(C/C=C(\C)CCC=C(C)C)c(O)c3C(=O)[C@@H]2O)cc1O (stereo partly drawn)     inhibition  Dose-dependent effect
6  COc1c(O)cc(C2CC(=O)c3c(cc(O)c(C/C=C(\C)CCC=C(C)C)c3O)O2)cc1O (stereo not drawn)     inhibition  Dose-dependent effect
7  CC(C)=CCC/C(C)=C/Cc1c(O)cc2c(c1O)C(=O)C[C@@H](c1ccc(O)cc1)O2 [BONANNIONE A]     inhibition  Dose-dependent effect
8  CC(C)=CCC/C(C)=C/Cc1c(O)cc2c(c1O)C(=O)C[C@@H](c1ccc(O)c(O)c1)O2 [NYMPHAEOL A]     inhibition  Dose-dependent effect
